B1: ICA1L peptide 451-466 (Islet cell autoantigen 1-like protein), 16-mer library wild type / NSP16 (ORF1ab Nsp16, residues 6799-7088) (parent)
chain 1: QDMSAWFNLFADLDPL
chain 2: SSQAWQPGVAMPNLYKMQRMLLEKCDLQNYGDSATLPKGIMMNVAKYTQLCQYLNTLTLAVPYNMRVIHFGAGSDKGVAPGTAVLRQWLPTGTLLVDSDLNDFVSDADSTLIGDCATVHTANKWDLIISDMYDPKTKNVTKENDSKEGFFTYICGFIQQKLALGGSVAIKITEHSWNADLYKLMGHFAWWTAFVTNVNASSSEAFLIGCNYLGKPREQIDGYVMHANYIFWRNTNPIQLSSYSLFDMSKFPLKLRGTAVMSLKEGQINDMILSLLSKGRLIIRENNRVVI

- Variants of: B1
- TEST_PARAMETERS: with NSP16 (ORF1ab Nsp16, residues 6799-7088); bait immobilised on MaxiSorp plates (10 µg), library pre-cleared on GST, 2 h binding at 4 °C, five washes; one round per day, days 1-4; value from days 2 and 3; keep out of graded; scale: average fractional NGS count over selection days 2 and 3
Kindly supply the reported screen value values for the records listed here.
Give bare numbers.

Some solved entries appear below for comparison.
- RESIDUE_STRING: "chain 1 QDMSAWFNLFADLDAL [chain 1 P15A]"
  screen value: "1.57e-05"
- RESIDUE_STRING: "chain 1 QDMSAWFNLFADLAPL [chain 1 D14A]"
  screen value: "3.47e-05"
- RESIDUE_STRING: "chain 1 QDMSAWFNLRADLDPL [chain 1 F10R]"
  screen value: 0
- RESIDUE_STRING: "chain 1 QDMSAWFNLFADLDWL [chain 1 P15W]"
  screen value: "2.45e-05"
- RESIDUE_STRING: "chain 1 QDMSLWFNLFADLDPL [chain 1 A5L]"
  screen value: "1.55e-05"

Items follow; give screen value for each.
1. chain 1 QDMAAWFNLFADLDPL [chain 1 S4A]
2. chain 1 QDMSAWFNLFAQLDPL [chain 1 D12Q]
3. chain 1 QDMSAWFNIFADLDPL [chain 1 L9I]
4. chain 1 QDMSAWFNAFADLDPL [chain 1 L9A]

**A:**
1: 0; 2: 5.82e-05; 3: 3.31e-05; 4: 0

Items follow; give screen value for each.
1. chain 1 QDMSAWMNLFADLDPL [chain 1 F7M]
2. chain 1 QDMSAWFNLFADLDFL [chain 1 P15F]
3. chain 1 QDMSGWFNLFADLDPL [chain 1 A5G]
4. chain 1 QDMSAWFNLFADLDPN [chain 1 L16N]
5. chain 1 QDMSAWFNWFADLDPL [chain 1 L9W]
6. chain 1 QDMDAWFNLFADLDPL [chain 1 S4D]

**A:**
1: 7.76e-05; 2: 0; 3: 6.16e-05; 4: 2.43e-05; 5: 7.05e-05; 6: 6.54e-05

Items follow; give screen value for each.
1. chain 1 QDMSAWFNLFADLDYL [chain 1 P15Y]
2. chain 1 QDMSAWFNLFDDLDPL [chain 1 A11D]
3. chain 1 QDMSAWFSLFADLDPL [chain 1 N8S]
4. chain 1 QDMSAWFNLHADLDPL [chain 1 F10H]
5. chain 1 QDMSAWFNLFADLNPL [chain 1 D14N]
6. chain 1 QDMSAWFNLFFDLDPL [chain 1 A11F]

**A:**
5.19e-05
0
2.43e-05
0
6.07e-05
1.35e-05
